Biological target: FAAH (Rattus norvegicus)
Construct: Preparation of Rat Brain Membranes Preparations (FAAH Enzyme Solution); from tissue; host or cells: rat cerebrum (brain membrane preparation)
Assay: Determination of FAAH inhibitory activity in rat (rat brain membrane preparations, [3H]-anandamide hydrolysis)
Assay type: biochemical
Conditions: rat brain membrane preparations; 100 nM test substance; read-out: FAAH Inhibition, Inhibition Rate at 100 nM
Observable: inhibition at 0.1 µM (%)
Number only, in %; omit the unit.

Some compounds with recorded inhibition at 0.1 µM:
- Structure smiles: "CCN(C)C(=O)n1c(=O)n(C)c2cnc(-c3cccc(C(F)F)c3)nc21"
  Assay target: "FAAH (Rattus norvegicus)"
  Observable: "inhibition at 0.1 µM"
  Readout unit: "%"
  Measured number: 93
- Structure smiles: "COc1cccc(N2CCN(C(=O)n3c(=O)n(C)c4nc(-c5ccccc5)ncc43)CC2)n1"
  Assay target: "FAAH (Rattus norvegicus)"
  Observable: "inhibition at 0.1 µM"
  Readout unit: "%"
  Measured number: 99
- Structure smiles: "CCOc1ccc(-c2ncc3c(n2)n(C(=O)N2CCCC2)c(=O)n3C)cc1"
  Assay target: "FAAH (Rattus norvegicus)"
  Observable: "inhibition at 0.1 µM"
  Readout unit: "%"
  Measured number: 97
- Structure smiles: "O=C(N1CCCC1)n1c(=O)n(Cc2ccccc2)c2nc(-c3ccccc3)ncc21"
  Assay target: "FAAH (Rattus norvegicus)"
  Observable: "inhibition at 0.1 µM"
  Readout unit: "%"
  Measured number: 66

Request the reported inhibition at 0.1 µM associated with Cn1c(=O)n(C(=O)N2CCCC2)c2nc(/C=C/c3cccc(C(F)(F)F)c3)ncc21
86

---

Biological target: FAAH (Rattus norvegicus, UniProt P97612)
Construct: Preparation of Rat Brain Membranes Preparations (FAAH Enzyme Solution); from tissue; host or cells: rat cerebrum (brain membrane preparation)
Sequence (P97612 whole entry): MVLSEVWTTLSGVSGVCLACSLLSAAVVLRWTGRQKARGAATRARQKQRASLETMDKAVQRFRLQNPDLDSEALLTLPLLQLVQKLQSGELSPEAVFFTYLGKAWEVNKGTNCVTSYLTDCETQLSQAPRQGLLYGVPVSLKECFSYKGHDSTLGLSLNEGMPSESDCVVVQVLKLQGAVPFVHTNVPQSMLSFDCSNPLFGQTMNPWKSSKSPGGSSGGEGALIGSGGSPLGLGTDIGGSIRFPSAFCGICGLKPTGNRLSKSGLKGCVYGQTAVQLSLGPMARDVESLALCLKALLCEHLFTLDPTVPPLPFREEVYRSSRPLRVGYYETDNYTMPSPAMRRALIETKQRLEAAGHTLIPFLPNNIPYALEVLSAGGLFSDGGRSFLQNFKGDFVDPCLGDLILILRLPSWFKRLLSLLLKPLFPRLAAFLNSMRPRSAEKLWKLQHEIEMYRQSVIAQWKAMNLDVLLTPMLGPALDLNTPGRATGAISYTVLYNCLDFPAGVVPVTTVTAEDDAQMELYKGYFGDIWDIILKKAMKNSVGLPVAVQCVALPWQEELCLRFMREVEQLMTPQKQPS
Test: Determination of FAAH inhibitory activity in rat (rat brain membrane preparations, [3H]-anandamide hydrolysis)
Assay type: biochemical
Details: rat brain membrane preparations; test substance 0.1 nM to 1 μM; read-out: FAAH Inhibition IC50
Entries and their pIC50
Remember the convention: pIC50 equals -log10 of concentration in molar.

- Structure smiles: "COCc1ncc2c(n1)n(C)c(=O)n2C(=O)N1CC(c2cccc(OC(F)(F)F)c2)C1"
  Observable: "pIC50"
  Measured number: 7.55

Request the reported pIC50 associated with COc1ccc(F)cc1-c1ncc2c(n1)n(C)c(=O)n2C(=O)N1CCCC1
7.18

Request the reported pIC50 associated with CN(C)C(=O)n1c(=O)n(C)c2cnc(CCc3cccc(OCC4CC4)c3)nc21
8.22

---

Molecular target: FAAH (Rattus norvegicus)
Construct: Preparation of Rat Brain Membranes Preparations (FAAH Enzyme Solution); from tissue; host or cells: rat cerebrum (brain membrane preparation)
Assay: Determination of FAAH inhibitory activity in rat (rat brain membrane preparations, [3H]-anandamide hydrolysis)
Type: biochemical
Settings: rat brain membrane preparations; 100 nM test substance; read-out: FAAH Inhibition, Inhibition Rate at 100 nM
Observable: inhibition at 0.1 µM (%)
Number only, in %; omit the unit.

Request the reported inhibition at 0.1 µM associated with CN(C)C(=O)n1c(=O)n(C)c2cnc(-c3ccc(OC(F)(F)F)cc3)nc21
90

---

Entries and their IC50
Molecular target: FAAH (Rattus norvegicus)
Construct: Preparation of Rat Brain Membranes Preparations (FAAH Enzyme Solution); from tissue; host or cells: rat cerebrum (brain membrane preparation)
Assay: Determination of FAAH inhibitory activity in rat (rat brain membrane preparations, [3H]-anandamide hydrolysis)
Assay type: biochemical
Conditions: rat brain membrane preparations; test substance 0.1 nM to 1 μM; read-out: FAAH Inhibition IC50
Method: Determination of FAAH Inhibitory Activity in Rat The preparation of rat brain membranes preparations and the determination of FAAH inhibitory activity were carried out according to the Jonsson et al. method [Br. J. Pharmacol., 133, 1263 (2001)]. (1) Preparation of Rat Brain Membranes Preparations (FAAH Enzyme Solution) The cerebrum was extracted from rats and was freeze-stored at −80° C. […]
Number only, in nM; omit the unit.

Some compounds with recorded IC50:
- Structure smiles: "Cc1ccc(N2CCN(C(=O)n3c(=O)n(C)c4nc(-c5ccccc5)ncc43)CC2)cc1"
  IC50 (nM): 7
- Structure smiles: "CN(C)C(=O)n1c(=O)n(C)c2cnc(COc3cccc(OC(F)(F)F)c3)nc21"
  IC50 (nM): 3
- Structure smiles: "Cn1c(=O)n(C(=O)N2CCCC2)c2cnc(Cc3ccc(F)c(F)c3)nc21"
  IC50 (nM): 42

Moving on to another compound below.
Request the reported IC50 associated with CCc1ccccc1CCc1ncc2c(n1)n(C(=O)N(C)C)c(=O)n2C
10
